Below, each of the compounds is paired with its reported log10 of AC50 value.
tested on: H460 (NRF2 pathway mutant cell line with high AKR1C3 expression); assay: In vitro cell proliferation assay (CellTiter-Glo), H460; format: cell-based; conditions: Homo sapiens, NCI-H460, 72 h; H460 cells, 3 days, CellTiter-Glo, top concentration 10 μM; read-out: H460 Qualified absolute AC50
All values: log10 AC50 [nM].

Reference set, count: 3
1. O=C1CC2(CCN(C(=O)NCc3ccc(OC(F)F)cc3)CC2)Nc2c(F)cc(F)cc21 [Example 150]: 3.80
2. Nc1cc(CNC(=O)N2CCC3(CC2)CC(=O)c2cc(F)ccc2N3)ccc1F [Example 95]: 2.69
3. Cn1cc(CNC(=O)N2CCC3(CC2)CC(=O)c2cc(F)ccc2N3)cn1 [Example 145]: 3.54

Problem: Which log10 of AC50 value is on record for O=C(NCCO)c1cc(CNC(=O)N2CCC3(CC2)CC(=O)c2cc(F)ccc2N3)ccc1F [Example 48] ?
Solution: 2.03

Problem: // same read-out, input: CN1c2ccc(F)cc2C(=O)CC12CCN(C(=O)NCc1ccc(F)c(CC(N)=O)c1)CC2 [Example 62]
Solution: 2.33

Problem: // same read-out, input: Nc1ccc(CNC(=O)N2CCC3(CC2)CC(=O)c2cc(F)ccc2N3)c(C(F)(F)F)c1 [Example 104]
Solution: 2.76

Problem: // same read-out, input: CN1c2ccc(F)cc2C(=O)CC12CCN(C(=O)NCc1ccc(F)c(NCCO)c1F)CC2 [Example 91]
Solution: 2.65

Problem: // same read-out, input: CN1CCN(C(=O)C(C)(C)CNc2cc(CNC(=O)N3CCC4(CC3)CC(=O)c3cc(F)ccc3N4C)ccc2F)CC1 [Example 44]
Solution: 2.00
